src = patent US20080241274A1

Test system: biotin-labeled calf brain tubulin
testDetails: Competition with 3H-colchicine for tubulin binding (SPA beads)
Set-up: species or system bovine
recordedConditions: 200-fold molar excess of cold competitor; FIG. 8
readoutName: Inhibition of 3H-colchicine binding (in words)

CC(=O)O[C@H]1C(=O)[C@@]2(C)[C@H]([C@H](OC(=O)c3ccccc3)[C@]3(O)C[C@H](OC(=O)[C@H](O)[C@@H](NC(=O)c4ccccc4)c4ccccc4)C(C)=C1C3(C)C)[C@]1(OC(C)=O)CO[C@@H]1C[C@@H]2O no effect
CC[C@]1(O)C[C@@H]2CN(CCc3c([nH]c4ccccc34)[C@@](C(=O)OC)(c3cc4c(cc3OC)N(C)[C@H]3[C@@](O)(C(=O)OC)[C@H](OC(C)=O)[C@]5(CC)C=CCN6CC[C@]43[C@@H]65)C2)C1 no effect

----------
Tested on: biotin-labeled calf brain tubulin
testDetails: Competition with 3H-indibulin for tubulin binding (SPA beads)
Set-up: species or system bovine
recordedConditions: 200-fold molar excess of cold competitor; FIG. 7
readoutName: Competition with 3H-indibulin for tubulin binding

CC(=O)O[C@H]1C(=O)[C@@]2(C)[C@H]([C@H](OC(=O)c3ccccc3)[C@]3(O)C[C@H](OC(=O)[C@H](O)[C@@H](NC(=O)c4ccccc4)c4ccccc4)C(C)=C1C3(C)C)[C@]1(OC(C)=O)CO[C@@H]1C[C@@H]2O do not compete
COc1cc([C@@H]2c3cc4c(cc3[C@H](O)[C@H]3COC(=O)[C@H]23)OCO4)cc(OC)c1OC compete
COC(=O)Nc1nc2ccc(C(=O)c3cccs3)cc2[nH]1 compete
CC[C@]1(O)C[C@@H]2CN(CCc3c([nH]c4ccccc34)[C@@](C(=O)OC)(c3cc4c(cc3OC)N(C)[C@H]3[C@@](O)(C(=O)OC)[C@H](OC(C)=O)[C@]5(CC)C=CCN6CC[C@]43[C@@H]65)C2)C1 do not compete
